# subject.of.test: T1, recombinant human IL-23 (p19/p40) (human, UniProt Q9NPF7 20-189; P29460 23-328)
# T1 sequence (looked up) 1: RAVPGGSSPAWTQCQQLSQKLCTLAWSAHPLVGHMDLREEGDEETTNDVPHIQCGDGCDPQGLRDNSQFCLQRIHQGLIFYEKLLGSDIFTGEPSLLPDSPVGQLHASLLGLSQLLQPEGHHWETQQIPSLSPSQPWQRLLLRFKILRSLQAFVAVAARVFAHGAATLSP
# T1 sequence (looked up) 2: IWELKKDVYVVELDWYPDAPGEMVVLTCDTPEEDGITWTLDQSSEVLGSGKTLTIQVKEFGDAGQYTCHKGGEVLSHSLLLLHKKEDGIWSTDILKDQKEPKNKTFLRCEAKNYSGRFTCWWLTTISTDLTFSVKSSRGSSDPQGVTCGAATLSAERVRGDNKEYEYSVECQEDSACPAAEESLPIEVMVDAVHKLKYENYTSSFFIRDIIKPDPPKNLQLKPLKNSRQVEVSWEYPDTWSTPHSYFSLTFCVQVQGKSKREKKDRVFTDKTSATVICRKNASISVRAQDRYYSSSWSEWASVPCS
# assay.overview: cell-based or functional assay
# note: exactly 0.4 nM is not below, so it is rule not met; use rule met for IC50, mouse splenocyte assay (mIL-22) strictly under it

Example entries begin here.
| binder | class.name |
| --- | --- |
| P23IL-23H3 (VHH, p40+ Nanobody) VHH: EVQLVESGGGLVQAGDSLRLSCAASGRSFSNDAMGWFRQAPGKERSFVAAINWSGELTGYAGSVKGRFTISRDGVENMVFLQMNSLVPEDTGVYYCAAVEGRDYYRGAQYYDYWGQGTQVTVSS | rule not met |
| P23IL-22E11 (VHH) VHH: EVQLVESGGGLVQAGGSLRLSCAASGRTFSWSAVGWFRQAPGKEREFVAAIRWSGGSPYYADSVKDRFTISRDNAKNTVYLQMNSLRPEDTAVYLCGETSLFPTSRGSHYDTWGQGTQVTVSS | rule met |
| P23IL-23E3 (VHH, p40+ Nanobody) VHH: EVQLVESGGELVQAGGSLRLSCAASGSIVSISAMAWYRQAPGKQRERVATITRGGTPDYADSAKDRFTISRDNAKNTVSLQMNNLKPEDTAVYYCKAALRTPTHDYNYYDYWGQGTQVTVSS | rule not met |
| P23IL3G10 (VHH, p40+ Nanobody; c-myc, His6-tagged) VHH: EVQLVESGGGVVQAGESLRLSCAASGYNVKDYEMGWFRQAPGMEREFAAAISWRGSSTYYADSVKGRFTISRDNAKNTVYLQMSSLKPEDTAVYYCAAGRLYPSSRSRDYDYWGQGTQVTVSS | rule not met |

From here, focus on the item given below.
Problem: For the binder P23IL-22D7 (VHH, p40+ Nanobody) VHH: EVQLVESGGGLVQAGGSLRLSCASSGRTFSIYARGWFRQAPGKEREFVAAIRSGLTTYSDSVKGRFTISRDIAKNTVFLQMNSLKSEDTAVYYCAAAVNYFTDFTDYSKRDSYDYWGQGTQVTVSS , is IC50, mouse splenocyte assay (mIL-22) under 0.4 nM?
rule met

The measured values listed here are drawn from patent US20110053865A1.
